Measured growth inhibition of individual entries
measurementNotes: NCI Yeast Anticancer Drug Screen. Data for the mec2-1 strain (AID 157)
assayConditions: S. cerevisiae mec2-1 strain, at 50.0 µM, hits give high values
Compounds without any hit were thinned out: in the full panel of roughly 79,000, 15% have a hit.
The reply should contain only the number, in %.

Example cases with answers are listed next.
compound: CCCCC[N+]1=Cc2cc(O)c(O)cc2CC1
quantitativeReadout: -5.7
--
compound: N#CC(c1ccccc1)N1CCCN(C(C#N)c2ccccc2)C1c1ccc(N(CCCl)CCCl)cc1 (stereo unspecified)
quantitativeReadout: -1.5
--
compound: COC1OC(OC)[CH]([Hg][Cl])C1OC (stereo unspecified)
quantitativeReadout: 99.7
--
compound: O=c1s[se]c2ccccc12
quantitativeReadout: 87.1
--
compound: S=C1NCCN1
quantitativeReadout: 14.7
--
compound: COC12C(COC(N)=O)C3=C(C(=O)C(C)=C(NC(C)C)C3=O)N1CC1NC12 (stereo unspecified)
quantitativeReadout: 47.9
--
compound: CCCCOS(C)(=O)=O
quantitativeReadout: -13.8
--
compound: C[CH2][Sn]([Br])([CH2]C)[c]1ccccc1CN(C)C
quantitativeReadout: 65.5

Request: Find the recorded growth inhibition belonging to CCN(CC)C1=C(N(CC)CC)C(N(CC)CC)=C(N(CC)CC)C1=O.[C-]#[O+].[C-]#[O+].[C-]#[O+].[Fe] and report it.
Response: -13.2

Request: # repeat for CC(=O)O[C@H]1CCC2[C@@H]3CCC4Nc5oncc5C[C@]4(C)C3CC[C@@]21C (stereo partly specified)
Response: 8.35

Request: # repeat for CC1(C(N)Cc2c[nH]c3ccccc23)OCCO1 (stereo unspecified)
Response: -0.1

Request: # repeat for CC(=O)O.CC(=O)O.CC(=O)O.CC(=O)O.CC(=O)O.CC(=O)O.O.[Ti].[Ti]
Response: -23.8

Request: # repeat for c1ccc([As+](c2ccccc2)(c2ccccc2)c2cccc3ccccc23)cc1
Response: 99.1

Request: # repeat for O=[N+]([O-])O.[Ce]
Response: 3.35

Request: # repeat for O=[As](O)(O)Cc1cccc(F)c1
Response: -7.8

Request: # repeat for COC(=O)C1C(=O)CC2N(C)C1C(C)(C)C2(C)C (stereo unspecified)
Response: 21.4

---

measurementNotes: NCI Yeast Anticancer Drug Screen. Data for the mlh1 rad18 strain (AID 175)
assayConditions: S. cerevisiae mlh1 rad18 strain growth inhibition; at 50.0 µM
Compounds without any hit were thinned out: in the full panel of roughly 79,000, 15% have a hit. The source made the active and inactive calls. No stated cut-off is given here; in the data, active means growth inhibition above about 70%; inactive means the rest.
Just give me one of these, please: active, inactive

Solved entries:
compound: CC(C)[C@](O)(C(=O)OCC1=CC[N+]2([O-])CC[C@@H](O)[C@@H]12)[C@H](C)O (stereo not given in full)
discreteLabel: inactive

compound: O=[N+]([O-])c1ccc(SCl)c([N+](=O)[O-])c1
discreteLabel: inactive

compound: Cc1ccc(C2=NOP(c3ccccc3)(c3ccccc3)(c3ccccc3)C2)cc1
discreteLabel: inactive

compound: CC(=O)OC1CCC2C3CCC4C(F)C(=O)C(F)(F)CC4(C)C3CCC12C (stereo not given)
discreteLabel: inactive

// switching to the query compound
Request: Name the outcome recorded for Cc1c([N+](=O)[O-])cc(C(C)(C)C)c(O)c1[N+](=O)[O-] in the assay.
Response: active

---

measurementNotes: NCI Yeast Anticancer Drug Screen. Data for the mlh1 rad18 strain (AID 175)
assayConditions: S. cerevisiae mlh1 rad18 strain growth inhibition; at 50.0 µM
Compounds without any hit were thinned out: in the full panel of roughly 79,000, 15% have a hit. Activity calls are given as the source filed them. Cut-off read from the data, not from the text of the source: active = growth inhibition above about 70%; inactive = the rest.
Just give me one of these, please: active, inactive

molecule: C[CH2][Sn]1([CH2]C)[O]C2C(OC)OC3COC(c4ccccc4)OC3C2[O]1 (configuration not stated)
discreteLabel: inactive
--
molecule: CC1(C(=O)O)CCCC2(C)c3cc(O)ccc3CCC12 (configuration not stated)
discreteLabel: inactive
--
molecule: COc1ccc(/C=C(\C)[N+](=O)[O-])cc1OC
discreteLabel: active

Request: Name the outcome recorded for O=[N+]([O-])O.[Sm] in the assay.
Response: inactive

Request: # repeat for CC1=C[C@H]2O[C@H]3C[C@H]4OC(=O)/C=C\C=C\C(=O)OCC[C@@H](C)C(O)C(=O)OC[C@@]2(CC1)[C@@]4(C)[C@]31CO1 (some centres not stated)
Response: active

Request: # repeat for O=S(=O)(Cl)OO/C=C\OOS(=O)(=O)Cl
Response: inactive

Request: # repeat for COc1cccc(C)c1C1CC2CCCN2O1 (configuration not stated)
Response: inactive

Request: # repeat for S=C(Nc1ccccc1)Nc1ccc(N(CCCl)CCCl)cc1
Response: inactive

---

measurementNotes: NCI Yeast Anticancer Drug Screen. Data for the rad50 strain (AID 155);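 note: 0% = growth of vehicle-only cultures of the same strain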
assayConditions: S. cerevisiae rad50 strain growth inhibition; at 50.0 µM (retest, dose inferred, filed as 5.0); hits give high values
Protocol: Growth inhibition of yeast strains with defined genetic alterations is measured as a screen for potential anti-cancer activity. Selected strains with alterations in DNA damage repair or cell cycle control were exposed to compounds and growth inhibition was measured relative to vehicle treated controls. The strain used in this assay is rad50
This is part of a sample that, as a whole, favours compounds with a hit. Of some 79,000 tested, about 15% had one in any assay.
outcomeMeasure: growth inhibition (%)
The reply should contain only the number, in %.

Example cases with answers are listed next.
compound: CC(=O)NC1=C(N(CCCl)CCCl)C(=O)c2ccccc2C1=O
growth inhibition (%): 98
//
compound: CC1=CC2CC(C)=C(CC[C@]3(C)CC[C@H]([C@@H](C)C(=O)O)OO3)C(C)(C)C2CC1 (some centres undefined)
growth inhibition (%): 98
//
compound: CN=C(N)N/N=C(\C)c1ccc2sc3ccc(/C(C)=N/NC(N)=NC)cc3c2c1
growth inhibition (%): 55

Request: Find the recorded growth inhibition belonging to COc1cc(/C=C/[N+](=O)[O-])cc(Br)c1OC and report it.
Response: 98

Request: # repeat for CCCCCc1cc(O)c(CCCC)c(O)c1
Response: 87

Request: # repeat for [Cl][Sn]([CH2]c1ccccc1)([CH2]c1ccccc1)[CH2]c1ccccc1
Response: 98

Request: # repeat for CCOc1c(Br)cc(/C=C(\C)[N+](=O)[O-])cc1OC
Response: 7

Request: # repeat for CC(=O)[O][Pb]([O]C(C)=O)([O]C(C)=O)[c]1ccccc1
Response: 98

Request: # repeat for CC(=O)Nc1ccccc1[As](OC(C)=O)c1ccccc1 (centres undefined)
Response: 97

Request: # repeat for O=S(=O)(CCBr)CCBr
Response: 68

Request: # repeat for CCOC(=O)CNC(=O)C1C2c3ccccc3C(c3ccccc32)C1C(=O)O (centres undefined)
Response: 38

Request: # repeat for O=[N+]([O-])c1cccc([N+](=O)[O-])c1Cl
Response: 96

Request: # repeat for S=C=NC/C(Cl)=C/Cl
Response: 48

Request: # repeat for O=[N+]([O-])c1ccc(SP(=S)(c2ccccc2)c2ccccc2)c([N+](=O)[O-])c1
Response: 97

Request: # repeat for N=C(N)c1ccc(NN=Nc2cccc3c2Oc2ccccc2O3)cc1
Response: 89

Request: # repeat for O=[N+]([O-])c1ccc(CS(=O)(=O)C(Cl)Cl)o1
Response: 79

Request: # repeat for CN1CCN(c2ccc3nc(-c4ccc5nc(CCCc6ccc(N(CCCl)CCCl)cc6)[nH]c5c4)[nH]c3c2)CC1
Response: 98

Request: # repeat for CC12CCC3C(CCC4Cc5nc6nnnn6cc5CC43C)C1CCC2O (centres undefined)
Response: 79

Request: # repeat for c1cs[c]([Hg][c]2cccs2)c1
Response: 98

Request: # repeat for CC(=O)O.[RuH].c1ccc([PH+](c2ccccc2)c2ccccc2)cc1.c1ccc([PH+](c2ccccc2)c2ccccc2)cc1.c1ccc([PH+](c2ccccc2)c2ccccc2)cc1
Response: 75

Request: # repeat for CC1CCCC[N-]1.CC1CCCC[N-]1.N#C[S-].N#C[S-].[Cd] (centres undefined)
Response: 87

Request: # repeat for CN(C)N(P(N)(Cl)(c1ccccc1)c1ccccc1)P(N)(Cl)(c1ccccc1)c1ccccc1
Response: 90

Request: # repeat for C=CCc1cc(Cl)ccc1OC(=O)N(C)C
Response: -2

---

measurementNotes: NCI Yeast Anticancer Drug Screen. Data for the cln2 rad14 strain (AID 165);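 note: 0% = growth equal to vehicle treated cultures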
assayConditions: S. cerevisiae cln2 rad14 strain, at 50.0 µM, hits give high values
Compounds without any hit were thinned out: in the full panel of roughly 79,000, 15% have a hit.
Measured growth inhibition of individual entries
The reply should contain only the number, in %.

Example cases with answers are listed next.
compound: NC(P(=O)(O)O)P(=O)(O)O
u: %
growth inhibition: 15.3
--
compound: COc1ccc(CCN(C)Cc2cccc(OC)c2OC)cc1OC
u: %
growth inhibition: -0.95

Request: Find the recorded growth inhibition belonging to COc1ccccc1/C=C/[N+](=O)[O-] and report it.
Response: 99.3

Request: # repeat for CC(C)NC1CC2CCCCC2CC1c1ccccc1 (centres undefined)
Response: 82.3

Request: # repeat for CSP(=S)(SC(C)C)SC(C)C
Response: 3.8

Request: # repeat for COc1ccc2c3c1O[C@H]1C(Br)C=C[C@H]4[C@@H](C2)N(C)CC[C@]314 (some centres undefined)
Response: -22.6

Request: # repeat for C[C@]12CC[C@H]3[C@@H](CCC4=CC(=O)CC[C@@]43C)[C@@H]1CC[C@@H]2OC(=O)c1cccc2c(=O)c3ccccc3[nH]c12
Response: 34.2

Request: # repeat for CCCCC(CC)C(O)P(=O)(OCC)OCC (centres undefined)
Response: -21.9
